SUBJECT_OF_TEST: T1, FZD6 CRD (Homo sapiens, UniProt O60353)
T1 construct: S20-P146; GPI anchor signal (C); expressed in transfected cells; host or cells: CHO cells, lentiviral pLenti-puro
T1 sequence (O60353 20-146): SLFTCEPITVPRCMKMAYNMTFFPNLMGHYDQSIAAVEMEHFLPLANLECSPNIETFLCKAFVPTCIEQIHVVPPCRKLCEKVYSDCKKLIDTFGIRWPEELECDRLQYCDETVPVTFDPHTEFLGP
ASSAY_METHOD_TEXT: Immunofluorescence of anti-FZD5 Fab binding to CHO cells overexpressing Frizzled CRD
Set-up: key: −: no binding; +: very weak binder; ++: weak binder; +++: good binder; ++++: very good binder
EXPERIMENTAL_ENDPOINT: Immunofluorescence binding, Frizzled CRD overexpressed on CHO cells: FZD6

| MOLECULE | MEASURED |
| --- | --- |
| Fab-2906: anti-FZD5 Fab with antibody variable region Fv-2906; CDR SEQ ID NOs: 35, 36, 45, 84, 121, 158 (antibody, V domains shown) VH: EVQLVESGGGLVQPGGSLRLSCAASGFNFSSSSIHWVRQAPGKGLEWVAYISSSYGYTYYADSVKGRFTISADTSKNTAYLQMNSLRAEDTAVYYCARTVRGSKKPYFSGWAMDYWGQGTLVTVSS VL: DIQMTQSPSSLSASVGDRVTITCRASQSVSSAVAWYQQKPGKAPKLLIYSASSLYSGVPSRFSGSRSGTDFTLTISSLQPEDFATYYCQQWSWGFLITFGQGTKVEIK | − |
| Fab-2912: anti-FZD5 Fab with antibody variable region Fv-2912; CDR SEQ ID NOs: 35, 36, 51, 90, 127, 164 (antibody, V domains shown) VH: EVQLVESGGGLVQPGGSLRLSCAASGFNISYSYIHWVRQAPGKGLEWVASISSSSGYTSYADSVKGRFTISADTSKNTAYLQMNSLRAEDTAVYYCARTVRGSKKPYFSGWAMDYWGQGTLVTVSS VL: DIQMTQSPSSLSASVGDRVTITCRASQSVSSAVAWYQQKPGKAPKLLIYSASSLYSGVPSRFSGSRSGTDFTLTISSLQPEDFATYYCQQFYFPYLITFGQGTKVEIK | − |
